# ASSAY_METHOD_TEXT: in vitro
# Assay type: in vitro ADME
# CONDITION_CONTEXT: microsomes, pH 7.4; rat; 1 μM compound, 0.5 mg/mL protein; read-out: Liver Microsomal Stability t1/2
ASSAY_ENDPOINT: half-life at 1 μM (h)
Could you give me the number in h? Just the number is fine.

Worked examples, 5 molecules total:
1) O=C(N[C@H]1N=C(c2ccccc2)c2cccc(F)c2NC1=O)c1c(-c2ccccc2F)nc2ccc(Cl)nn12 | 0.957
2) O=C(N[C@H]1N=C(c2ccccc2)c2cccc(F)c2NC1=O)c1c(-c2ccc(C3CC3)nc2)nn2cccnc12 | 4.43
3) Cc1ccc(-c2nn3cccnc3c2C(=O)N[C@H]2N=C(c3ccccc3)c3cccc(F)c3NC2=O)cn1 | 3.88
4) O=C(N[C@H]1N=C(c2ccccc2)c2ccccc2NC1=O)c1c(-c2ccc(C3CC3)nc2)nn2cccnc12 | 15.2
5) O=C(N[C@H]1N=C(c2ccccc2)c2cccc(F)c2NC1=O)c1c(-c2ccc(N3CCOCC3)nc2)nn2cccnc12 | 2.63

Problem: Entry `O=C(N[C@H]1N=C(c2ccccc2)c2ccccc2NC1=O)c1c(-c2cccc(F)c2F)nn2cccnc12` : reported half-life at 1 μM = ?
Solution: 41.5

Problem: Entry `Cc1nc2ccc(Cl)nn2c1C(=O)N[C@H]1N=C(c2ccccc2)c2cccc(F)c2NC1=O` : reported half-life at 1 μM = ?
Solution: 1.68
